- Tested on: OVCAR-4 ovarian
- PROTOCOL SUMMARY: NCI-60 one-dose screen, 48 h
- EXPERIMENTAL PARAMETERS: 10 µM unless noted
About 83,000 compounds went through this panel and 20% of them were active in at least one assay; those are over-represented in the sample as a whole. Calls of active or inactive are those of the source. The calls were made as follows: active = growth percent below 10; inactive = the rest.
Respond only with the outcome that fits, drawn from 1.0 (active), 0.0 (inactive)

Here's what some known entries look like.
COc1ccccc1C(OC(C)=O)OC(C)=O :: 0.0
CC(=O)Nc1ccc(OC(=O)c2ccccc2O)cc1 :: 0.0
C=CC(=O)NC(=O)Nc1ccccc1Cl :: 0.0

What call does the record list for CCOC(=O)C1=C(N)Oc2cc(OC)ccc2C1c1ccc(F)c(F)c1 (stereo unspecified) ?
0.0

Please let me know the test result on file for COc1ccc2c(c1)C(=O)/C(=C/c1ccc(OCC(=O)c3ccc(Cl)cc3)cc1)O2 .
0.0

Assay outcome for C=C1C(=O)O[C@H]2[C@H]1CC/C(COC(=O)c1ccc(C#N)cc1)=C\CC[C@@]1(C)O[C@@H]21 : what was it?
0.0

Can you look up the reported call for COc1ccc(/C=C/C(=O)c2ccc(-n3cc(CN4CCN(c5cc6c(cc5F)c(=O)c(C(=O)O)cn6C5CC5)CC4)nn3)cc2)cc1OC for me?
0.0

Per the records of this test, what outcome belongs to OCc1cn(-c2ccc(Cl)cc2)nc1-c1ccc(O)cc1 ?
0.0

Fill in: this test's call for NS(=O)(=O)c1ccc(Nc2nc(O)c(/C=C3\C=Nc4ccccc43)s2)cc1 is ___
0.0

# lookup: test call for NC(=NCCCOc1ccc(F)cc1)Nc1ccc(Cl)c(Cl)c1
0.0

I would be grateful if you could indicate the recorded call for CC1(C)Cc2c(Br)c(Br)c(Br)c(OCC(O)CN3CCN(c4ccccn4)CC3)c2O1 (stereo unspecified) .
0.0

Fill in: this test's call for COc1cc2ncnc(Oc3ccc(NC(=O)Nc4ccc(C5(C#N)CCCC5)cc4)c4ccccc34)c2cc1OC is ___
1.0

Could you check what this test reported for COc1ccc(/C(Cl)=N/N=C(\Cl)c2cc(OC)c(OC)c(OC)c2)cc1OC(C)=O ?
0.0

Any idea what this test logged for O=C(Cn1c2ccccc2c2ccncc21)N/N=C/c1cc(O)c(O)c(O)c1 ?
0.0

###

- System: MDA-MB-435 melanoma
- PROTOCOL SUMMARY: NCI-60 one-dose screen, 48 h
- EXPERIMENTAL PARAMETERS: 10 µM unless noted
This is part of a sample that, as a whole, favours compounds with a hit. Of some 83,000 tested, about 20% had one in any assay. Active and inactive are the calls of the source. How the source made its calls: active means growth percent below 10; inactive means the rest.
Form entry, call: pick from active, inactive

COc1ccc(/C(=C/c2cc(OC)c(OC)c(OC)c2)[N+](=O)[O-])cc1 :: active
COc1ccccc1C(OC(C)=O)OC(C)=O :: inactive
O=C(Nc1ccc(F)cc1)Nc1ccc(Cl)c([N+](=O)[O-])c1 :: inactive
CC(/C=C/C=C(\C)[C@H](O)[C@H](C)C(=O)O[C@H]1C[C@H](C)C=C2C=C[C@@]3(C)O[C@@H](O)CC(=O)[C@]3(C)[C@H]21)=C\C=C\C(=O)O :: active

Per the assay record, what outcome was assigned to C=CC(C)(O)CCC1C(=C)CCC2C(C)(C)CCCC12C (configuration not stated) ?
inactive

###

- System: UACC-257 melanoma
- PROTOCOL SUMMARY: NCI-60 one-dose screen, 48 h
- EXPERIMENTAL PARAMETERS: 10 µM unless noted
The panel holds about 83,000 compounds, 20% with a hit somewhere; the sample as a whole holds those more often. The source made the active and inactive calls. Rule for the calls: active = growth percent below 10; inactive = the rest.
Your answer must be one of the following: T = active, F = inactive

Worked examples follow.
COc1ccc2c(-c3ccc(F)cc3)c(C#N)c(=NC(C)=O)oc2c1 :: F
COc1ccc2c(c1)O/C(=C/c1ccc(OCC(=O)Nc3ccc(S(N)(=O)=O)cc3)cc1)C2=O :: F
CC1(C)N=C(N)N=C(N)N1c1ccc(F)c(C(F)(F)F)c1 :: F
O=[N+]([O-])c1cccc(C(c2ccccc2)c2ccccc2)c1 :: F
CCC1S/C(=N\N=C(/C)c2cccs2)N(c2ccccc2)C1=O (centres undefined) :: F

Give the logged outcome of this assay for the following compound: O=C(Cn1c2ccccc2c2ccncc21)N/N=C\c1ccc2ccccc2c1
F

Just curious, what result did CCN(CC)CCNc1ccc([N+](=O)[O-])c2sc3cc(Cl)ccc3c(=O)c12 get here?
F

###

- System: RXF 393 renal
- PROTOCOL SUMMARY: NCI-60 one-dose screen, 48 h
- EXPERIMENTAL PARAMETERS: 10 µM unless noted
- Experimental: Cells are grown in 96 well plates and exposed to the test compound for 48 hours. Compounds are tested at a single concentration, which is 10^-5 M for most compounds. The reported endpoint is percent growth (GI% or GIPRCNT), where numbers from 0 - 100% represent growth inhibition, and numbers from -100% - 0 represent cell death. For example, a value of 40 represents 60% growth inhibition. A value of 0 means no net growth occurred over the course of the experiment. […]
The panel holds about 83,000 compounds, 20% with a hit somewhere; the sample as a whole holds those more often. Active and inactive are the calls of the source. How the source made its calls: active means growth percent below 10; inactive means the rest.
Thanks in advance; please answer with one of these: 1 = active, 0 = inactive

Before answering, review these 2 worked examples.
O=C(Nc1cccc(-n2ccc3c(NC(=O)c4ccccc4)nccc32)c1)Nc1ccc(Cl)c(C(F)(F)F)c1 :: 1
O=C(N/N=C/c1ccccc1O)c1ccccc1O :: 0

Returns: the outcome recorded for N#CC(C#N)=C(C#N)c1c[nH]c2ccccc12 in this assay.
0

Kindly provide the recorded test outcome for the following compound: CC(C)C(=O)Nc1nc2c(s1)CCCc1ccn(S(=O)(=O)c3ccccc3)c1-2
0

Hi, sorry to bother you, what did the test record for CCCCN(CCCC)c1ccc(C(=N)c2ccc(N(C)C)cc2)cc1 ?
1

###

- System: PC-3 prostate
- PROTOCOL SUMMARY: NCI-60 one-dose screen, 48 h (100 = growth as untreated, 0 = no growth, -100 = all killed)
- EXPERIMENTAL PARAMETERS: 10 µM unless noted
Compounds without any hit were thinned out: in the full panel of roughly 83,000, 20% have a hit.
PARAMETER MEASURED: growth (%)
Numbers only, in %.

CCCCCC/C=N/Nc1ccc([N+](=O)[O-])cn1 :: 93.2

Fill in growth for each of the 8 compounds listed.
1. COc1ccc(/C(=C/c2cc(OC)c(OC)c(OC)c2)[N+](=O)[O-])cc1
2. CCCCOc1nc2ccc(Cl)cc2cc1/C=C/C(=O)/C=C/c1ccc(Cl)cc1
3. Oc1ccc(Cl)cc1Sc1cc(Cl)ccc1O
4. CCN(CC)c1ccc(C2CC(c3cc(OC)c(OC)c(OC)c3)=NN2)cc1 (stereo unspecified)
5. Cc1c(C(C)(C)C)cc(C(C)(C)C)c2c1CN(C)CO2
6. O=C1/C(=C/c2cccc3cnccc23)Cc2cc(F)ccc21
7. COC1OCC(OS(=O)(=O)c2ccc(C)cc2)C(OC(=O)c2ccccc2)C1OC(=O)c1ccccc1 (stereo unspecified)
8. Nc1ncnc2c1ccn2-c1cccc(NC(=O)c2cccc(C(F)(F)F)c2)c1

35.1
57.5
89.6
26.3
110
79.2
47.8
51.7

Batch request: growth for each of the following compounds.
1. CCc1c(C)c2cc3c(c(C)c2oc1=O)OCC(=O)N3
2. COc1cc(NC(=O)C#Cc2ccccc2)c(OC)cc1Cl

1. 80.4
2. 38.1

For each entry beneath this line, provide reported growth.
1. COc1ccc2c(c1)OC(N)=C(C#N)C2c1ccc(F)c(F)c1 (stereo unspecified)
2. S=C=NP1(N=C=S)=NP(N=C=S)(N=C=S)=NP(N=C=S)(N=C=S)=NP(N=C=S)(N=C=S)=N1 (stereo unspecified)
3. COc1ccc2c(c1)OC(N(C(C)=O)C(C)=O)=C(C#N)C2c1ccc(F)cc1 (stereo unspecified)
4. O=C1COc2ccccc2C(=O)N1CCCCN1CCCCC1
5. COC(=O)CCCNS(=O)(=O)c1cc(C(=O)Nc2ccc(NC(=O)c3cc(S(=O)(=O)NCCCC(=O)OC)c(O)c(O)c3O)cc2)c(O)c(O)c1O
6. O=S(=O)(Nc1cccc2cc(OS(=O)(=O)c3ccccc3)ccc12)c1ccccc1
7. CC(CCC(=O)O)[C@H]1CCC2C3C(=O)C[C@@H]4CC(=O)CC[C@]4(C)C3CC(=O)[C@@]21C (stereo partly specified)
8. COc1cc2c(/C=C3/C(=O)Nc4ccc(O)cc43)c(Cl)n(Cc3cc(OC)c(OC)c(OC)c3)c2cc1C

1: 24.2; 2: 86.4; 3: 21.9; 4: 57.7; 5: 83.3; 6: 59; 7: 92.8; 8: 11.3

Could you tell me growth for each of these compounds? They are listed below.
1. COc1ccc(-c2nn(-c3ccc(NC(=O)Nc4ccc(Cl)c(C(F)(F)F)c4)cc3)cc2-c2ccncc2)cc1Cl
2. CCN(CC)CCNC(=O)c1c(C)[nH]c(/C=C2\C(=O)Nc3cc(NC(=O)NC(=O)c4ccc(OC)cc4F)ccc32)c1C
3. Fc1ccc(/C=N/n2c(-c3cc(Cl)cc(Cl)c3Cl)nn(CNc3ccc(Cl)nn3)c2=S)cc1
4. COc1cc2ncn3c(=O)c4c5c(sc4nc3c2cc1OC)CCCCC5
5. C=C1c2c(Cl)ccc(O)c2C(O)=C2C(=O)[C@]3(O)C(O)=C(C(N)=O)C(=O)[C@@H](N(C)C)[C@@H]3[C@@H](O)[C@H]12
6. Oc1ccc(O)c(-[n+]2ccccc2)c1

[4.33, 86.8, 86.7, 90.9, -8.47, 92.5]
